target: Cyclin-dependent kinase 9 (Homo sapiens)
Sequence (P50750 whole entry): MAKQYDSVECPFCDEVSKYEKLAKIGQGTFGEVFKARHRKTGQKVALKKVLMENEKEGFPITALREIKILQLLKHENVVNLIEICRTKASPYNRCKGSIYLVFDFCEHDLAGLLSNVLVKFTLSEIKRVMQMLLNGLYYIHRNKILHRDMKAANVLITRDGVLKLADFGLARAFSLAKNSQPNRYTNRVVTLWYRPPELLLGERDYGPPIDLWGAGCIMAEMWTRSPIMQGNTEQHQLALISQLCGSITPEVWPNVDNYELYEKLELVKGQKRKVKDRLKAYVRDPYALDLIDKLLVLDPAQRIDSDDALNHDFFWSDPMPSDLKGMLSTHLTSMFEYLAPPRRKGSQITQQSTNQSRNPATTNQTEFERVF
pIC50: −log10 of the molar value.
PROPERTY: pIC50

MOLECULE: COc1cc(F)ccc1-c1cc(NC(=O)[C@H]2CCC[C@@H](NC(=O)Nc3cc(C)no3)C2)ncc1F [US12570607, Example 41]
PROPERTY: pIC50
ASSAY RESULT: 8.12

MOLECULE: COc1ccccc1-c1cc(NC(=O)[C@H]2CCC[C@@H](NC(C)=O)C2)ncc1F [US12570607, Example 17]
PROPERTY: pIC50
ASSAY RESULT: 8.15

MOLECULE: COc1cc(F)ccc1-c1cc(NC(=O)[C@H]2CCC[C@@H](NC(=O)C3(C#N)CC3)C2)ncc1F [US12570607, Example 33]
PROPERTY: pIC50
ASSAY RESULT: 8.18

MOLECULE: COc1cc(F)ccc1-c1cc(NC(=O)[C@H]2CCC[C@@H](NS(C)(=O)=O)C2)ncc1F [US12570607, Example 25]
PROPERTY: pIC50
ASSAY RESULT: 8.12

MOLECULE: COc1cc(F)c(F)cc1-c1cc(NC(=O)[C@H]2CCC[C@@H](NC(=O)CO)C2)ncc1F [US12570607, Example 68]
PROPERTY: pIC50
ASSAY RESULT: 8.26

MOLECULE: COc1cc(F)ccc1-c1cc(NC(=O)[C@H]2CCC[C@@H](NC(=O)C(F)(F)F)C2)ncc1F [US12570607, Example 42]
PROPERTY: pIC50
ASSAY RESULT: 8.18

MOLECULE: COc1cc(F)ccc1-c1cc(NC(=O)[C@H]2CCC[C@@H](NC(C)=O)C2)ncc1F [US12570607, Example 5]
PROPERTY: pIC50
ASSAY RESULT: 8.10

----------
molecular target: Cyclin-dependent kinase 4 (Homo sapiens, UniProt P11802)
Sequence (P11802 whole entry): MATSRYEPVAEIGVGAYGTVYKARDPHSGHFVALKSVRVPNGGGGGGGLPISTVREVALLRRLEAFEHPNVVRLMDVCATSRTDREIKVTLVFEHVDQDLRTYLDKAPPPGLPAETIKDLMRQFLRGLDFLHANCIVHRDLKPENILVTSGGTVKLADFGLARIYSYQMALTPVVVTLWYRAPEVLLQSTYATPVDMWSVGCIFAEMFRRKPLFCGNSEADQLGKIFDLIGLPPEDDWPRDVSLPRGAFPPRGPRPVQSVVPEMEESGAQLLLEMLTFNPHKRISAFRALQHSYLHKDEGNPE
pIC50: −log10 of the molar value.
// reported pIC50 for each item listed
PROPERTY: pIC50

SMILES ENTRY: COc1cc(F)ccc1-c1cc(NC(=O)[C@H]2CCC[C@@H](NC(=O)C3(C#N)CC3)C2)ncc1F
PROPERTY: pIC50
ASSAY RESULT: 6.40
--
SMILES ENTRY: CNC(=O)N[C@@H]1CCC[C@H](C(=O)Nc2cc(-c3ccc(F)cc3OC)c(F)cn2)C1
PROPERTY: pIC50
ASSAY RESULT: 6.44
--
SMILES ENTRY: COC(=O)N[C@@H]1CCC[C@H](C(=O)Nc2cc(-c3ccc(F)cc3OC)c(F)cn2)C1
PROPERTY: pIC50
ASSAY RESULT: 6.20
--
SMILES ENTRY: COc1cc(F)ccc1-c1cc(NC(=O)[C@H]2CCC[C@@H](NC(C)=O)C2)ncc1F
PROPERTY: pIC50
ASSAY RESULT: 6.37
--
SMILES ENTRY: CC(=O)N[C@@H]1CCC[C@H](C(=O)Nc2cc(-c3ccc(F)cc3OC(C)C)c(F)cn2)C1
PROPERTY: pIC50
ASSAY RESULT: 6.56

----------
Observed IC50 for Cyclin-dependent kinase 7 (Homo sapiens), reported per entry below.

SMILES ENTRY: CC(=O)N[C@@H]1CCC[C@H](C(=O)Nc2cc(-c3cccc4ccoc34)c(F)cn2)C1
TEST TARGET: Cyclin-dependent kinase 7 (Homo sapiens)
Sequence (P50613 whole entry): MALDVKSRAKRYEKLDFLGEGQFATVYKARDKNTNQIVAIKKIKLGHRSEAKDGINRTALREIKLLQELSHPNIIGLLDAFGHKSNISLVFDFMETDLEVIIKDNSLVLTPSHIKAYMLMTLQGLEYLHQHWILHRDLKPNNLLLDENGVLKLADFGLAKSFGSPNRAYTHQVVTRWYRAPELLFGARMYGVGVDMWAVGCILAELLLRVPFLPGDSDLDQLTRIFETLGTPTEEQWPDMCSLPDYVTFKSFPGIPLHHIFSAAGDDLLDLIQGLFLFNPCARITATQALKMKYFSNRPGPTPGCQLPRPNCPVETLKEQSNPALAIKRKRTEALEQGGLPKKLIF
IC50 [nM]: 1170

SMILES ENTRY: COc1cc(F)c(F)cc1-c1cc(NC(=O)[C@H]2CCC[C@@H](NC(=O)C3(C#N)CC3)C2)ncc1F
TEST TARGET: Cyclin-dependent kinase 7 (Homo sapiens)
IC50 [nM]: 1420

SMILES ENTRY: COc1cc(F)ccc1-c1cc(NC(=O)[C@H]2CCC[C@@H](NC(=O)Nc3cc(C)no3)C2)ncc1F
TEST TARGET: Cyclin-dependent kinase 7 (Homo sapiens)
IC50 [nM]: 1080

SMILES ENTRY: COc1cc(F)ccc1-c1cc(NC(=O)[C@H]2CCC[C@@H](NS(C)(=O)=O)C2)ncc1F
TEST TARGET: Cyclin-dependent kinase 7 (Homo sapiens)
IC50 [nM]: 4360

SMILES ENTRY: COc1cc(F)ccc1-c1cc(NC(=O)[C@H]2CCC[C@@H](NC(=O)CO)C2)ncc1F
TEST TARGET: Cyclin-dependent kinase 7 (Homo sapiens)
IC50 [nM]: 4440

SMILES ENTRY: COc1cc(F)c(F)cc1-c1cc(NC(=O)[C@H]2CCC[C@@H](NC(=O)CO)C2)ncc1F
TEST TARGET: Cyclin-dependent kinase 7 (Homo sapiens)
IC50 [nM]: 2630
